# experimental-target: T1, GII.4 Sydney 2012 shell (S) domain (UniProt P54635 1-221)
# T1 chain: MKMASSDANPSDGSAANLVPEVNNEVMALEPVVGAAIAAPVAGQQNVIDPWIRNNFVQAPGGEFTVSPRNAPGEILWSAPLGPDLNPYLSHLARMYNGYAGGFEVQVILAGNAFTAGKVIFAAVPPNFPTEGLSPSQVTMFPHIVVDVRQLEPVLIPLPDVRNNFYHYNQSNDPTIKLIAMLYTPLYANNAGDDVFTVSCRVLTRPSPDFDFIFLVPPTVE
# assay-text: ELISA
attribute-measured: EC50 (nM)
Only the number, expressed in nM, is required.

In: What does the record list as EC50 for NORO-168.2 (antibody, V domains shown) VH: QVQLVESGGGVVQPGRSLRLSCAASGFTFSSYAMHWVRQAPGKGLEWVAVISYDGSNKYYADSVKGRFTISRDNSKNTLYLQMNSLRAEDTAVYYCARSVIGYYYYGMDVWGQGTLVTVSS VL: QPVLTQPPSASASLGASVTLTCTLSSGYSNYKVDWYQQRPGKGPRFVMRVGTGGIVGSKGDGIPDRFSVLGSGLNRYLTIKNIQEEDESDYHCGADHGSGILFGGGTKLTVL ?
Out: 78
